biological target: human PD-L1 (Homo sapiens); construct: purchased Cisbio Bioassays SAS 64PD1PEG; experiment: HTRF PD-1/PD-L1 Binding Assay Kit (Cisbio); conditions: LE = −1.4(logIC50)/Nheavy atoms
Sequence (Q9NZQ7 19-238 limits assumed): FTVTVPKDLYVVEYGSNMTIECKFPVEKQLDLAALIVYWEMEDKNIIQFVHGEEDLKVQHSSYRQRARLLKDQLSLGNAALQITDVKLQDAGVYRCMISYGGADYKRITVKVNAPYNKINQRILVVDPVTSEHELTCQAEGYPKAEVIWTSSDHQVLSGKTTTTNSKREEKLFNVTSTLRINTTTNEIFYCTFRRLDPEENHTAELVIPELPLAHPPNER
Note to self: LE (ligand efficiency) under 0.2 kcal/mol/Heavy Atom means criterion met, ties and anything higher get criterion not met.

Decide: LE (ligand efficiency) of COc1cc(OCc2cccc(-c3ccccc3)c2C)cc(OC)c1CN1CCCC[C@H]1C(=O)OCCF strictly below 0.2 kcal/mol/Heavy Atom?
criterion not met

Decide: LE (ligand efficiency) of COc1nc(OCc2cccc(-c3ccccc3)c2C)ccc1CN(CCNC(C)=O)C(=O)OCCF strictly below 0.2 kcal/mol/Heavy Atom?
criterion met

Decide: LE (ligand efficiency) of COc1nc(OCc2cccc(-c3ccccc3)c2C)ccc1CN(C)CCN(C)C(C)=O strictly below 0.2 kcal/mol/Heavy Atom?
criterion not met

Decide: LE (ligand efficiency) of COc1nc(OCc2cccc(-c3ccccc3)c2C)ccc1CN(C)CCNC(C)=O strictly below 0.2 kcal/mol/Heavy Atom?
criterion not met

Decide: LE (ligand efficiency) of COc1nc(OCc2cccc(-c3ccccc3)c2C)ccc1CNCCN(C)C(C)=O strictly below 0.2 kcal/mol/Heavy Atom?
criterion not met
